# target system: Sodium channel alpha subunits; brain (Types I, II, III) (Rattus norvegicus, UniProt P04775+P04774+P08104)
# test summary: Displacement of [3H]batrachotoxin from rat brain sodium channel
# Format: tissue-based
test readout: log10 Ki (log10 of the value in µM)

{"compound": "COc1ccccc1N1CCN(Cc2cn3c(O)nc4ccccc4c3n2)CC1", "log10 Ki": 0.68}
{"compound": "Oc1nc2ccccc2c2ncc(CN3CCN(c4ccccc4Cl)CC3)n12", "log10 Ki": 0.39}
{"compound": "COc1ccccc1N1CCN(Cc2cnc3c4ccccc4nc(O)n23)CC1", "log10 Ki": 0.73}
{"compound": "COc1ccccc1N1CCN(CCn2c(=O)[nH]c3ccccc3c2=O)CC1", "log10 Ki": 0.57}
{"compound": "COc1ccccc1N1CCN(CC2CN=C3c4ccccc4N=C(SC)N32)CC1 (stereo not given)", "log10 Ki": -0.39}

###

Catalogue of molecules with associated Ki
# target system: Serotonin 2 (5-HT2) receptor (Rattus norvegicus, UniProt P30994+P08909+P14842)
# test summary: Compound is evaluated for binding affinity towards 5-hydroxytryptamine 2 receptor using [3H]ketanserin in rat brain
# Format: tissue-based

{"molecule": "COc1ccccc1N1CCN(CC2CN=C3c4ccccc4NC(=O)N32)CC1 (configuration not stated)", "unit symbol": "nM", "Ki": 377}
{"molecule": "COc1ccccc1N1CCN(Cc2cn3c(O)nc4ccccc4c3n2)CC1", "unit symbol": "nM", "Ki": 3580}
{"molecule": "COc1ccccc1N1CCN(CC2CN=C3c4ccccc4N=C(SC)N32)CC1 (configuration not stated)", "unit symbol": "nM", "Ki": 168}
{"molecule": "COc1ccccc1N1CCN(CC2CN3C(=O)Nc4ccccc4C3=N2)CC1 (configuration not stated)", "unit symbol": "nM", "Ki": 369}
{"molecule": "COc1ccccc1N1CCN(CCn2c(=O)[nH]c3ccccc3c2=O)CC1", "unit symbol": "nM", "Ki": 180}
{"molecule": "Oc1nc2ccccc2c2ncc(CN3CCN(c4ccccc4Cl)CC3)n12", "unit symbol": "nM", "Ki": 114}
{"molecule": "COc1ccccc1N1CCN(Cc2cnc3c4ccccc4nc(O)n23)CC1", "unit symbol": "nM", "Ki": 514}

###

# target system: D(3) dopamine receptor (Homo sapiens, UniProt P35462)
# Sequence (P35462 whole entry): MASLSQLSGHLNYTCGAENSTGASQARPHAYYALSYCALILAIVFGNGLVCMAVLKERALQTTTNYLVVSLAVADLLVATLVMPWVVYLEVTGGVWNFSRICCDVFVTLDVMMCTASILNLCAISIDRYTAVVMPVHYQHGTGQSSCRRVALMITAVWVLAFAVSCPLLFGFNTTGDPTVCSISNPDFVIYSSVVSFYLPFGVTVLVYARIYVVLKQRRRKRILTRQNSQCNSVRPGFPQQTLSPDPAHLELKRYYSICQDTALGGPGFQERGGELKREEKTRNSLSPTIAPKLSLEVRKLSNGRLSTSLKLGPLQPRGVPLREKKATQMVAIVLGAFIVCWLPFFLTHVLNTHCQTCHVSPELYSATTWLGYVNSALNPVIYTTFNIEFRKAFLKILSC
# test summary: Compound is evaluated for binding affinity towards recombinant human Dopamine receptor D3 using [3H]spiperone in CHO cells at 10 uM
# Assay type: cell-based

{"smiles string": "COc1ccccc1N1CCN(CCn2c(=O)[nH]c3ccccc3c2=O)CC1", "unit symbol": "nM", "Ki": 73}

###

# target system: Alpha-2A adrenergic receptor (Homo sapiens, UniProt P08913)
# Sequence (P08913 whole entry): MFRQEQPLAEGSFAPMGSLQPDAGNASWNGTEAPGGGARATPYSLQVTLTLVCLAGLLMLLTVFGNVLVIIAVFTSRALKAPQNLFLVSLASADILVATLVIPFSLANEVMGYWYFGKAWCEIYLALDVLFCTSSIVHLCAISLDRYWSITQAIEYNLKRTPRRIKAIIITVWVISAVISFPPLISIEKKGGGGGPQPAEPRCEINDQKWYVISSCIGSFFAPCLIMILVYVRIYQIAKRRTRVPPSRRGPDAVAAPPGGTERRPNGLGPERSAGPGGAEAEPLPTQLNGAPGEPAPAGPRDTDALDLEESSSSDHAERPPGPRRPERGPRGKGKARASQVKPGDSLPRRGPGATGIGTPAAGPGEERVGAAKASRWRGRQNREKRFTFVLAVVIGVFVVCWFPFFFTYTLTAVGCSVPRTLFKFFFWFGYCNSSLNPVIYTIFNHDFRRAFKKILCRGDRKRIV

{"compound": "COc1ccccc1N1CCN(CCn2c(=O)[nH]c3ccccc3c2=O)CC1", "Ki, nM": 1810}
{"compound": "COc1ccccc1N1CCN(CC2CN3C(=O)Nc4ccccc4C3=N2)CC1 (configuration not stated)", "Ki, nM": 547}

###

# target system: D(3) dopamine receptor (Homo sapiens, UniProt P35462)
# test summary: Compound is evaluated for binding affinity towards recombinant human Dopamine receptor D3 using [3H]spiperone in CHO cells
# Type: cell-based
Catalogue of compounds with associated Ki
test readout: Ki

{"compound": "COc1ccccc1N1CCN(CC2CN=C3c4ccccc4NC(=O)N32)CC1 (configuration not stated)", "target system": "D(3) dopamine receptor (Homo sapiens, UniProt P35462)", "reported result": "0.985 µM"}
{"compound": "COc1ccccc1N1CCN(CC2CN3C(=O)Nc4ccccc4C3=N2)CC1 (configuration not stated)", "target system": "D(3) dopamine receptor (Homo sapiens, UniProt P35462)", "reported result": "2.2 µM"}

###

# target system: Alpha-1A adrenergic receptor (Rattus norvegicus, UniProt P43140)
# Sequence (P43140 whole entry): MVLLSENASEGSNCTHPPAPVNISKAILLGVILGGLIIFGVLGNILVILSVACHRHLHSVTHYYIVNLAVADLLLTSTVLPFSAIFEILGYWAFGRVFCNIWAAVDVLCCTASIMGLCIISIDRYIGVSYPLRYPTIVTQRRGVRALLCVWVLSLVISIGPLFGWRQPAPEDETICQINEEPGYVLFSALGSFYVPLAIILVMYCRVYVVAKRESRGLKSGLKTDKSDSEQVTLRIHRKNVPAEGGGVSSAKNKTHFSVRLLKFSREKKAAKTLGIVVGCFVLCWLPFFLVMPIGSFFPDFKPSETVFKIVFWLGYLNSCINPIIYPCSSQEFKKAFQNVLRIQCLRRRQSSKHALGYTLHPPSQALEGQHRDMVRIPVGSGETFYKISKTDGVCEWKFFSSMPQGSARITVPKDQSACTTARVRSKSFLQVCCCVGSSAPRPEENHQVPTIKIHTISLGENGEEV
test readout: log10 of Ki (log10 of the value in nM)

{"compound": "COc1ccccc1N1CCN(CC2CN3C(=O)Nc4ccccc4C3=N2)CC1 (configuration not stated)", "target system": "Alpha-1A adrenergic receptor (Rattus norvegicus, UniProt P43140)", "reported result": -0.19}
{"compound": "COc1ccccc1N1CCN(C[C@@H]2CN=C3c4ccccc4NC(=O)N32)CC1", "target system": "Alpha-1A adrenergic receptor (Rattus norvegicus, UniProt P43140)", "reported result": 1.74}
{"compound": "COc1ccccc1N1CCN(C[C@@H]2CN=C3c4ccccc4N=C(SC)N32)CC1", "target system": "Alpha-1A adrenergic receptor (Rattus norvegicus, UniProt P43140)", "reported result": 2.09}
{"compound": "COc1ccccc1N1CCN(CC2CN=C3c4ccccc4N=C(SC)N32)CC1 (configuration not stated)", "target system": "Alpha-1A adrenergic receptor (Rattus norvegicus, UniProt P43140)", "reported result": -0.03}
{"compound": "COc1ccccc1N1CCN(CC2CN=C3c4ccccc4NC(=O)N32)CC1 (configuration not stated)", "target system": "Alpha-1A adrenergic receptor (Rattus norvegicus, UniProt P43140)", "reported result": -0.59}
{"compound": "COc1ccccc1N1CCN(CCn2c(=O)[nH]c3ccccc3c2=O)CC1", "target system": "Alpha-1A adrenergic receptor (Rattus norvegicus, UniProt P43140)", "reported result": -0.30}
{"compound": "COc1ccccc1N1CCN(C[C@H]2CN=C3c4ccccc4NC(=O)N32)CC1", "target system": "Alpha-1A adrenergic receptor (Rattus norvegicus, UniProt P43140)", "reported result": -0.64}

###

# target system: Adrenergic receptor alpha-2 (Rattus norvegicus, UniProt P22086+P19328+P22909)
# test summary: Displacement of clonidine from Alpha-2 adrenergic receptor of rat cortical membranes
# Assay type: cell membranes, Membrane
Catalogue of compounds with associated Ki
test readout: Ki

{"compound": "COc1ccccc1N1CCN(C[C@H]2CN=C3c4ccccc4N=C(SC)N32)CC1", "test readout": "Ki", "reported result": "3500 nM"}
{"compound": "COc1ccccc1N1CCN(CC2CN3C(=O)Nc4ccccc4C3=N2)CC1 (stereo unspecified)", "test readout": "Ki", "reported result": "230 nM"}
{"compound": "COc1ccccc1N1CCN(C[C@@H]2CN=C3c4ccccc4NC(=O)N32)CC1", "test readout": "Ki", "reported result": "> 10000 nM"}
{"compound": "COc1ccccc1N1CCN(C[C@@H]2CN=C3c4ccccc4N=C(SC)N32)CC1", "test readout": "Ki", "reported result": "9000 nM"}
{"compound": "COc1ccccc1N1CCN(CC2CN=C3c4ccccc4N=C(SC)N32)CC1 (stereo unspecified)", "test readout": "Ki", "reported result": "970 nM"}
{"compound": "COc1ccccc1N1CCN(C[C@H]2CN=C3c4ccccc4NC(=O)N32)CC1", "test readout": "Ki", "reported result": "183 nM"}

###

# target system: UniProtKB P14416
# Sequence (P14416 whole entry): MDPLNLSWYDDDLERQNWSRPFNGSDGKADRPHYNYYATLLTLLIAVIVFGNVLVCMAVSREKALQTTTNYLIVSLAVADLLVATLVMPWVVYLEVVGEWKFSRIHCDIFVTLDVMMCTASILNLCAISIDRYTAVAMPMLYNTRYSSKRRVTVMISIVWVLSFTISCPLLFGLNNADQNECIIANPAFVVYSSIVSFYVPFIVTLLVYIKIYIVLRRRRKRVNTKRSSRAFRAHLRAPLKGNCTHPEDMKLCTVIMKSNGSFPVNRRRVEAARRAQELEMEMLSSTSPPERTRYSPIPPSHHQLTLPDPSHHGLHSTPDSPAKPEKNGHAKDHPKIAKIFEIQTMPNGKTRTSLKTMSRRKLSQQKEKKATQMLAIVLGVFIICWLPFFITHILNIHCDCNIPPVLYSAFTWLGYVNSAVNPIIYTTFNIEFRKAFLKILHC
# test summary: Compound is evaluated for binding affinity towards Dopamine receptor D2 using [3H]spiperone in CHO cells at 10 uM
# Type: cell-based

{"smiles string": "COc1ccccc1N1CCN(CCn2c(=O)[nH]c3ccccc3c2=O)CC1", "target system": "UniProtKB P14416", "Ki (nM)": 32}
